// relative viability lookup, one value per entry
- Test system: LCLC-103H
- Method Description: relative viability (nuclei count vs DMSO), 5 days (fraction); higher = more cells survive
- Run Parameters: first compound 8 µM
Respond using a number only.

molecule="CCCCCCCCCCCC1=C(O)C(=O)C=C(O)C1=O [Embelin] + C[C@@H](Oc1cc(-c2cnn(C3CCNCC3)c2)cnc1N)c1c(Cl)ccc(F)c1Cl [Crizotinib] (partner 1 µM)" measured_endpoint="relative viability" recorded_value=0.959
molecule="CCCCCCCCCCCC1=C(O)C(=O)C=C(O)C1=O [Embelin] + O=C(c1cc(Cc2n[nH]c(=O)c3ccccc23)ccc1F)N1CCN(C(=O)C2CC2)CC1 [Olaparib] (partner 8 µM)" measured_endpoint="relative viability" recorded_value=0.764

Looking up CCCCCCCCCCCC1=C(O)C(=O)C=C(O)C1=O [Embelin] + Nc1ncn([C@H]2C[C@H](O)[C@@H](CO)O2)c(=O)n1 [Decitabine] (partner 2 µM) , I see its relative viability listed as 0.718

Item: CCCCCCCCCCCC1=C(O)C(=O)C=C(O)C1=O [Embelin] + COc1cccc2cc(-c3nc([C@H]4CC[C@H](C(=O)O)CC4)n4ncnc(N)c34)[nH]c12 [OSI-027] (partner 0.5 µM) | relative viability: 0.423
